Target: human FPR2 (Homo sapiens (Human))
Sequence (P25090 whole entry): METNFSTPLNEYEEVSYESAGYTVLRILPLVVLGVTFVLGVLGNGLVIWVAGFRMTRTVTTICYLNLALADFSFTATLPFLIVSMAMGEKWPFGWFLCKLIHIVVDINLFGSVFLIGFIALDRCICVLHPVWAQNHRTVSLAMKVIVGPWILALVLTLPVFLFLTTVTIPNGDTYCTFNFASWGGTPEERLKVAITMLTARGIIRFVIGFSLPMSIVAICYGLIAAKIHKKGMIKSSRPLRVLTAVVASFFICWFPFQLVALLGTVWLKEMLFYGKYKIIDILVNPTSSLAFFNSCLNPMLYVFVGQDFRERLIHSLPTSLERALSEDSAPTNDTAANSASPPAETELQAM
Assay: FPR2 cyclic adenosine monophosphate (cAMP) assay
Settings: CHO cells overexpressing human FPR2; forskolin 5 μM, IBMX 200 μM; inhibition of cAMP production, HTRF; read-out: hFPR2 cAMP2 EC50
Method: FPR2 and FPR1 Cyclic Adenosine Monophosphate (cAMP) Assays. […] The level of intracellular cAMP was determined using the HTRF HiRange cAMP assay reagent kit (Cisbio) according to manufacturer's instruction. […] After a 1-h room temperature incubation, time-resolved fluorescence intensity was measured using the Envision (Perkin-Elmer) at 400 nm excitation and dual emission at 590 nm and 665 nm. […]
pEC50: −log10 of the molar value.
endpoint-name: pEC50

COP(=O)(OC)c1ccccc1-c1ccc(N2CC[C@@H](NC(=O)Nc3ccc(C(F)(F)F)cc3F)C2=O)c(F)c1F [Example 108]: 8.85
CP(C)(=O)c1ccccc1-c1ccc(N2CC[C@@H](NC(=O)Nc3ncc(C(F)(F)F)cc3F)C2=O)c(F)c1F [Example 55]: 7.66
N#Cc1ccccc1-c1ccc(N2CC[C@@H](NC(=O)Nc3ccc(Cl)cc3)C2=O)c(F)c1F [Example 8]: 8.70

----------
# maps each entry to its EC50
Biological target: human FPR2 (Homo sapiens (Human))
Experiment: FPR2 cyclic adenosine monophosphate (cAMP) assay
Details: CHO cells overexpressing human FPR2; forskolin 5 μM, IBMX 200 μM; inhibition of cAMP production, HTRF; read-out: hFPR2 cAMP2 EC50
endpoint-name: EC50 (nM)

CP(C)(=O)c1ccccc1-c1ccc(N2C(=O)[C@H](NC(=O)Nc3ccc(Cl)cc3F)C[C@H]2CO)c(F)c1F: 0.27
CP(C)(=O)c1ccccc1-c1ccc(N2CC[C@@H](NC(=O)Nc3cccc(Cl)c3)C2=O)c(F)c1F: 2.5
CP(C)(=O)c1ccccc1-c1ccc(N2CC[C@@H](NC(=O)Nc3ncc(Cl)cc3F)C2=O)c(F)c1F: 7.5
CC1C[C@@H](NC(=O)Nc2ccc(C(F)(F)F)cc2F)C(=O)N1c1ccc(-c2cccnc2P(C)(C)=O)c(F)c1F (stereo partly shown) [Example 128]: 1
CP(C)(=O)c1ccccc1-c1ccc(N2CC(CO)[C@@H](NC(=O)Nc3ccc(C(F)(F)F)cc3F)C2=O)c(F)c1F (stereo partly shown): 0.79
CP(C)(=O)c1ccccc1-c1ccc(N2CC[C@@H](NC(=O)Nc3ccc(Cl)cc3F)C2=O)c(C(F)F)c1F: 11
CP(C)(=O)c1ccccc1-c1ccc(N2CC[C@@H](NC(=O)Nc3csc(Cl)c3)C2=O)c(F)c1F: 150
CP(C)(=O)c1ccccc1-c1ccc(N2C(=O)[C@H](NC(=O)Nc3ccc(C(F)(F)F)cc3F)C[C@H]2CO)c(F)c1F: 0.86
CC1(C)CN(c2ccc(-c3cccnc3P(C)(C)=O)c(F)c2F)C(=O)[C@@H]1NC(=O)Nc1ccc(Cl)cc1F: 0.39
CP(C)(=O)c1c(F)cccc1-c1ccc(N2CC[C@@H](NC(=O)Nc3ccc(Cl)cc3F)C2=O)c(F)c1F: 0.077
CC1(C)CN(c2ccc(-c3ccccc3P(C)(C)=O)c(F)c2F)C(=O)[C@@H]1NC(=O)Nc1ccc(Cl)cc1F: 0.57
CP(C)(=O)c1ccccc1-c1ccc(N2CC[C@@H](NC(=O)Nc3ccc(C(F)(F)F)cc3F)C2=O)c(F)c1C(F)(F)F: 1.8
CP(C)(=O)c1ccccc1-c1ccc(N2CC[C@@H](NC(=O)Nc3ccc(C(F)(F)F)cc3F)C2=O)c(Cl)c1F: 2.9
COC[C@@H]1C[C@@H](NC(=O)Nc2ccc(C(F)(F)F)cc2F)C(=O)N1c1ccc(-c2ccccc2P(C)(C)=O)c(F)c1F: 5.1
Cn1ccc(-c2ccc(N3CC[C@@H](NC(=O)Nc4ccc(Cl)cc4F)C3=O)c(F)c2F)n1: 9.8
CCP(=O)(CC)c1ncccc1-c1ccc(N2CC[C@@H](NC(=O)Nc3ccc(C(F)(F)F)cc3F)C2=O)c(F)c1F: 2

Origin of the recorded values: patent US10676431B2
